Origin of measurements: paper PMC9352680

Molecular target: T1, PUF4 RNA-binding domain (Saccharomyces cerevisiae, UniProt P25339 537-888)
T1 sequence: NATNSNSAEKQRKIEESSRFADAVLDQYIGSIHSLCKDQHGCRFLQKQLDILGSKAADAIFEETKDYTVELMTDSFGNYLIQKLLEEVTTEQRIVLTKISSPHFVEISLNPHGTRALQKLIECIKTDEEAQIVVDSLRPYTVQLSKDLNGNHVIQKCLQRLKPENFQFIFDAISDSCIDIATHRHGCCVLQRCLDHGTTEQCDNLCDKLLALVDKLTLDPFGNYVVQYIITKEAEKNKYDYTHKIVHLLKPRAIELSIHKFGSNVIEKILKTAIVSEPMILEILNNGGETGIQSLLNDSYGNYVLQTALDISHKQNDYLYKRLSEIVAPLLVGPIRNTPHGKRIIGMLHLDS
Experiment: Mg; RNA-MaP; 20 mM Na-HEPES pH 7.4, 30 mM KOAc, 0.75 mM MgCl2, 0.1% Tween-20, 5% glycerol, 0.1 mg/mL BSA, 2 mM DTT; 25 C; 0.0125-409.6 nM protein
Conditions: tags: N-His6-TEV cleaved; C-SNAP kept, Cy3B-labelled; label: tethered on chip by stalled RNA polymerase
Measurement Label: Kd (nM)
Give bare numbers, in nM.

Some binders with recorded Kd:
{"Binder": "Id_i_S4_P3E.6_K3.2_C3.3_[T-3C]_[C-2T]_[T-1A]_H3.2_A3.1_F3.1_T3.2 (ssRNA) RNA: UUUGACAACUGAUCGUUCUUUCUCUAUAUAUAUAUAUUCUUUCUCGAUCAGUUGUCUUU", "Measurement Units": "nM", "Kd": 500}
{"Binder": "Ib_S4_P4E.1_K4.1_C4.1_H4.1_A4.1_[A6C]_F4.1_[T8C]_T4.1 (ssRNA) RNA: UUUGACAACUGAUCGUUCUUUCUUGUAUCUCAUUCUUUCUCGAUCAGUUGUCUUU", "Measurement Units": "nM", "Kd": 22.1}
{"Binder": "UCUCUUCCUAUAUAUUAACUCUCUU (ssRNA) [Id_ii_S1_P4E.3_K4.2_C4.2_[T-1C]_H4.2_A4.1_F4.1_T4.2_[G10A]_[T11C]]", "Measurement Units": "nM", "Kd": 29.3}
{"Binder": "UCUCUUUGUAUAAUUCUCUCUU (ssRNA) [Ib_S1_P5E.1_K5.1_C5.1_H5.1_A5.1_[T6A]_F5.1_[A10C]_T5.1]", "Measurement Units": "nM", "Kd": 10.6}
{"Binder": "UCUCUUUCUAUAUAUAACUCUCUU (ssRNA) [Id_ii_S1_P3E.3_K3.2_C3.2_[C-2T]_[T-1C]_H3.2_A3.1_F3.1_T3.2_[T9A]_[A10C]]", "Measurement Units": "nM", "Kd": 960}
{"Binder": "Id_i_S4_P3E.5_K3.1_C3.3_[T-3C]_[C-2T]_[T-1G]_H3.1_A3.1_F3.1_T3.2 (ssRNA) RNA: UUUGACAACUGAUCGUUCUUUCUCUGUGUAUAUAUAUUCUUUCUCGAUCAGUUGUCUUU", "Measurement Units": "nM", "Kd": 1.5}
{"Binder": "UCUCUUUGUACUUAGUCUCUU (ssRNA) [Ic_S1_P4E.1_K4.1_C4.1_H4.1_A4.1_[T5C]_[A6T]_F4.1_[T8A]_[A9G]_T4.1]", "Measurement Units": "nM", "Kd": 43}
{"Binder": "Ie_S4_P3E.2_K3.1_C3.2_[+-1CCCT]_H3.1_A3.1_F3.1_T3.2 (ssRNA) RNA: UUUGACAACUGAUCGUUCUUUCUCUCCCUUGUAUAUAUAUUCUUUCUCGAUCAGUUGUCUUU", "Measurement Units": "nM", "Kd": 0.775}
{"Binder": "UCUCUUAUACACUAUUACUUCUCUU (ssRNA) [Id_ii_S1_P4E.4_K4.3_C4.2_[C-2A]_H4.3_A4.1_F4.1_T4.2_[G10C]]", "Measurement Units": "nM", "Kd": 31.1}
{"Binder": "Ic_S2_P3E.1_K3.1_C3.1_H3.1_A3.1_F3.1_[A8T]_T3.1 (ssRNA) RNA: UUUGAUUAAUAUGAUAUCGUUCUUUCUUGUAUAUUUUCUUUCUCGAUAUCAUAUUAAUCUUU", "Measurement Units": "nM", "Kd": 1.67}

Please look at the items below and tell me Kd for each one, in order.
1. Ib_S4_P5E.1_K5.1_C5.1_H5.1_[A4C]_A5.1_F5.1_[T8A]_T5.1 (ssRNA) RNA: UUUGACAACUGAUCGUUCUUUCUUGUCUUAAUAUUCUUUCUCGAUCAGUUGUCUUU
2. Ic_S4_P3E.1_K3.1_C3.1_H3.1_A3.1_[T5A]_[A6T]_F3.1_T3.1 (ssRNA) RNA: UUUGACAACUGAUCGUUCUUUCUUGUAAUUAUUCUUUCUCGAUCAGUUGUCUUU

[26.8, 65.6]

Please look at the items below and tell me Kd for each one, in order.
1. UCUCUUUGUAACGUCUCUCUU (ssRNA) [Ic_S1_P4E.1_K4.1_C4.1_H4.1_A4.1_[T5A]_[A6C]_[T7G]_F4.1_[A9C]_T4.1]
2. Id_ii_S2_P3E.4_K3.3_C3.2_[C-2G]_H3.3_A3.1_F3.1_T3.2_[T9A]_[A10C] (ssRNA) RNA: UUUGAUUAAUAUGAUAUCGUUCUUUCUGUACACUAUAACUUCUUUCUCGAUAUCAUAUUAAUCUUU
3. Ic_S2_P5E.1_K5.1_C5.1_H5.1_A5.1_[T6A]_[A7T]_F5.1_[T8C]_[T9G]_[A10C]_T5.1 (ssRNA) RNA: UUUGAUUAAUAUGAUAUCGUUCUUUCUUGUAUAUCGCUUCUUUCUCGAUAUCAUAUUAAUCUUU
4. UCUCUUCUUCCUUUGUAUAUAUAUCUCUU (ssRNA) [Ie_S1_P3E.2_K3.1_C3.2_[+-2TTCCT]_H3.1_A3.1_F3.1_T3.2]
5. Id_ii_S4_P3E.4_K3.3_C3.2_[C-2T]_H3.3_A3.1_F3.1_T3.2_[T9G]_[A10C] (ssRNA) RNA: UUUGACAACUGAUCGUUCUUUCUUUACACUAUAGCUUCUUUCUCGAUCAGUUGUCUUU
6. Id_ii_S2_P3E.3_K3.2_C3.2_[C-2A]_H3.2_A3.1_F3.1_T3.2_[T9C]_[A10G] (ssRNA) RNA: UUUGAUUAAUAUGAUAUCGUUCUUUCUAUUAUAUAUACGUUCUUUCUCGAUAUCAUAUUAAUCUUU

1: 789; 2: 0.742; 3: 21.9; 4: 6.01; 5: 1230; 6: 713

Please look at the items below and tell me Kd for each one, in order.
1. Ie_S4_P5E.1_K5.1_C5.1_H5.1_A5.1_F5.1_[+8C]_T5.1 (ssRNA) RNA: UUUGACAACUGAUCGUUCUUUCUUGUAUUAUCUAUUCUUUCUCGAUCAGUUGUCUUU
2. UCUCUUAAUAUAUAUUACCUCUCUU (ssRNA) [Id_ii_S1_P4E.3_K4.2_C4.2_[C-2A]_[T-1A]_H4.2_A4.1_F4.1_T4.2_[G10C]_[T11C]]

1. 17.1
2. 76.2

Returns the measured Kd for the input binder. Input: UCUCUUUUUGUAUAUACUUCUCUU (ssRNA) [Id_ii_S1_P3E.2_K3.1_C3.2_[C-2T]_H3.1_A3.1_F3.1_T3.2_[T9C]_[A10T]] 10.2
